Target: human CXCR3 (N-delta 4) (Homo sapiens, UniProt P49682)
Construct: CD8 leader; Flag tag; expressed in transfected cells; membranes used
Sequence (P49682 5-368 limits assumed): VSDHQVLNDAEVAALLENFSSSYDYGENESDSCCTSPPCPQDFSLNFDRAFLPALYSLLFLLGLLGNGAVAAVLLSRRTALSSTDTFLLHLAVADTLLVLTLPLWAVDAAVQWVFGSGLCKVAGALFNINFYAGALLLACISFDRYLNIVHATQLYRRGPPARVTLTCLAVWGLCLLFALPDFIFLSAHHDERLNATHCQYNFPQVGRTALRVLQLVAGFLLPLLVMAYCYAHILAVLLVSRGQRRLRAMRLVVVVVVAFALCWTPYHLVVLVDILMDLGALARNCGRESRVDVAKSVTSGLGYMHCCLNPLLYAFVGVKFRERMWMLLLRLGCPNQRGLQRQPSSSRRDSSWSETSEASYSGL
Assay: Human CXCR3 (N-delta 4) scintillation proximity assay (SPA), [125I] IP-10 binding
Details: IC50 rating; Ba/F3-hCXCR3 (N-delta 4) membranes, 25 pM [125I] IP-10
Result Type: IC50

Find IC50 for `O=C(NCc1ccc(Br)cc1)c1cnc(N2CCN(C3CCN(Cc4ccc(F)cc4)CC3)CC2)c(Cl)c1` on human CXCR3 (N-delta 4) (Homo sapiens, UniProt P49682) and write it down.
0.025 to 0.1 µM

Find IC50 for `CC[C@H]1CN(c2ncc(CNC(N)=O)cc2Cl)CCN1C1CCN(Cc2ccc(Br)cc2F)CC1` on human CXCR3 (N-delta 4) (Homo sapiens, UniProt P49682) and write it down.
< 0.025 µM

Find IC50 for `C[C@H]1CN(c2ncc(C(=O)NCc3ccc(Cl)c(Cl)c3)cc2Cl)CCN1C1CCN(Cc2ccc(C#N)cc2)CC1` on human CXCR3 (N-delta 4) (Homo sapiens, UniProt P49682) and write it down.
< 0.025 µM

Find IC50 for CC[C@H]1CN(c2ncc(C(C)OC(C)=O)cc2Cl)CCN1C1CCN(Cc2ccc(Cl)cc2F)CC1 (some centres unmarked) on human CXCR3 (N-delta 4) (Homo sapiens, UniProt P49682) and write it down.
> 0.1 µM

Continuing:
Find IC50 for `O=C(NCc1ccc(Cl)cc1F)c1cnc(N2CCN(C3CCN(Cc4ccc(Br)cc4F)CC3)CC2)c(Cl)c1` on human CXCR3 (N-delta 4) (Homo sapiens, UniProt P49682) and write it down.
> 0.1 µM

Find IC50 for `CC[C@H]1CN(c2ncc(C(=O)c3ncco3)cc2Cl)CCN1C1CCN(Cc2ccc(Cl)cc2F)CC1` on human CXCR3 (N-delta 4) (Homo sapiens, UniProt P49682) and write it down.
0.025 to 0.1 µM

Find IC50 for `O=C(NCCOc1ccccc1)c1cnc(N2CCN(C3CCN(Cc4ccc(F)cc4F)CC3)CC2)c(Cl)c1` on human CXCR3 (N-delta 4) (Homo sapiens, UniProt P49682) and write it down.
> 0.1 µM

Find IC50 for `CC[C@H]1CN(c2ncc(CO)cc2Cl)CCN1C1CCN(Cc2ccc(Cl)cc2F)CC1` on human CXCR3 (N-delta 4) (Homo sapiens, UniProt P49682) and write it down.
< 0.025 µM

Find IC50 for CNC(=O)c1cnc(N2CCN(C3CCN(Cc4ccc(Cl)cc4)CC3)CC2C)c(Cl)c1 (centres unmarked) on human CXCR3 (N-delta 4) (Homo sapiens, UniProt P49682) and write it down.
0.025 to 0.1 µM

Find IC50 for `CC[C@H]1CN(c2ncc(CN/C(N)=N\C#N)cc2Cl)CCN1C1CCN(Cc2ccc(Cl)cc2F)CC1` on human CXCR3 (N-delta 4) (Homo sapiens, UniProt P49682) and write it down.
< 0.025 µM

Find IC50 for `CC[C@H]1CN(c2ncc(C(=O)C3CC3)cc2Cl)CCN1C1CCN(Cc2ccc(Cl)cc2F)CC1` on human CXCR3 (N-delta 4) (Homo sapiens, UniProt P49682) and write it down.
0.025 to 0.1 µM

Find IC50 for CC1(C)C2CCC(CNC(=O)c3cnc(N4CCN(C5CCN(Cc6ccc(Cl)cc6)CC5)CC4)c(Br)c3)C1C2 (centres unmarked) [compound 179] on human CXCR3 (N-delta 4) (Homo sapiens, UniProt P49682) and write it down.
> 0.1 µM

Find IC50 for `CC[C@H]1CN(c2ncc(CO)cc2Cl)CCN1C1CCN(C(=O)c2ccc(Br)cc2)CC1` on human CXCR3 (N-delta 4) (Homo sapiens, UniProt P49682) and write it down.
0.025 to 0.1 µM

Find IC50 for `C=CCNc1c(C(N)=O)cnc(N2CCN(C3CCN(Cc4ccc(Cl)cc4F)CC3)[C@@H](CC)C2)c1Cl` on human CXCR3 (N-delta 4) (Homo sapiens, UniProt P49682) and write it down.
> 0.1 µM

Find IC50 for `COc1ccc(CN2CCC(N3CCN(c4ncc(C(=O)NCc5ccc(F)c(F)c5)cc4Cl)CC3)CC2)cc1` on human CXCR3 (N-delta 4) (Homo sapiens, UniProt P49682) and write it down.
0.025 to 0.1 µM

Find IC50 for `O=C(NCc1ccc(Cl)cc1Cl)c1cnc(N2CCN(C3CCN(Cc4ccc(Cl)cc4)CC3)CC2)c(Cl)c1` on human CXCR3 (N-delta 4) (Homo sapiens, UniProt P49682) and write it down.
0.025 to 0.1 µM

Find IC50 for `O=C(NCc1ccc(Cl)cc1F)c1cnc(N2CCN(C3CCN(Cc4ccc(F)cc4F)CC3)CC2)c(Cl)c1` on human CXCR3 (N-delta 4) (Homo sapiens, UniProt P49682) and write it down.
> 0.1 µM

Find IC50 for CC[C@H]1CN(c2ncc(C(=O)NCCO)cc2Cl)CCN1C1CCN(C(CO)c2ccc(Cl)cc2)CC1 (some centres unmarked) on human CXCR3 (N-delta 4) (Homo sapiens, UniProt P49682) and write it down.
< 0.025 µM

Find IC50 for `CNC(=O)c1cnc(N2CCN(C3CCN(Cc4c(F)cccc4F)CC3)[C@@H](C)C2)c(Cl)c1` on human CXCR3 (N-delta 4) (Homo sapiens, UniProt P49682) and write it down.
> 0.1 µM

====

Molecular target: human CXCR3 (N-delta 4) (Homo sapiens, UniProt P49682)
Construct: CD8 leader; Flag tag; expressed in transfected cells; membranes used
Experiment: Human CXCR3 (N-delta 4) scintillation proximity assay (SPA), [125I] IP-10 binding
Settings: IC50 rating; Ba/F3-hCXCR3 (N-delta 4) membranes, 25 pM [125I] IP-10
pIC50: −log10 of the molar value.
Result Type: pIC50

Consider the reported pIC50 for these compounds:
Find pIC50 for `O=C(NCc1ccc(F)cc1F)c1cnc(N2CCN(C3CCN(Cc4ccc(Cl)c(F)c4)CC3)CC2)c(Cl)c1` on human CXCR3 (N-delta 4) (Homo sapiens, UniProt P49682) and write it down.
7.00 to 7.60

Find pIC50 for `CC[C@H]1CN(c2ncc(C(=O)NC)c3ccccc23)CCN1C1CCN(Cc2ccc(Cl)cc2F)CC1` on human CXCR3 (N-delta 4) (Homo sapiens, UniProt P49682) and write it down.
< 7.00

Find pIC50 for O=C(NCc1ccc(F)c(F)c1)c1cnc(N2CC3CC2CN3C2CCN(Cc3ccc(Cl)cc3)CC2)c(Cl)c1 (stereo not shown) on human CXCR3 (N-delta 4) (Homo sapiens, UniProt P49682) and write it down.
< 7.00

Find pIC50 for `CC(C)CNC(=O)c1cnc(N2CCN(C3CCN(Cc4ccc(Cl)cc4)CC3)CC2)c(Cl)c1` on human CXCR3 (N-delta 4) (Homo sapiens, UniProt P49682) and write it down.
< 7.00

Find pIC50 for CC[C@H]1CN(c2ncc(C(=O)NC)cc2Cl)CCN1C1CCN(C2c3ccc(Cl)cc3CCc3cccnc32)CC1 (stereo partly shown) on human CXCR3 (N-delta 4) (Homo sapiens, UniProt P49682) and write it down.
< 7.00

Continuing:
Find pIC50 for `CC[C@H]1CN(c2ncc(CNC(=O)NC(C)C)cc2Cl)CCN1C1CCN(Cc2ccc(Cl)cc2F)CC1` on human CXCR3 (N-delta 4) (Homo sapiens, UniProt P49682) and write it down.
> 7.60

Find pIC50 for `O=C(NCCOc1ccccc1)c1cnc(N2CCN(C3CCN(Cc4ccc(Cl)c(Cl)c4)CC3)CC2)c(Cl)c1` on human CXCR3 (N-delta 4) (Homo sapiens, UniProt P49682) and write it down.
< 7.00

====

pIC50 values for the compounds below.
Target: human CXCR3 (N-delta 4) (Homo sapiens)
Construct: CD8 leader; Flag tag; expressed in transfected cells; membranes used
Assay: Human CXCR3 (N-delta 4) scintillation proximity assay (SPA), [125I] IP-10 binding
Details: IC50 rating; Ba/F3-hCXCR3 (N-delta 4) membranes, 25 pM [125I] IP-10
pIC50: −log10 of the molar value.

For the compound Cc1cc(C(=O)NCc2ccc(Cl)c(Cl)c2)cnc1N1CCN(C2CCN(Cc3ccc(Cl)cc3)CC2)CC1 [compound 201] , report pIC50.
< 7.00

For the compound O=C(NCCCc1ccccc1)c1cnc(N2CCN(C3CCN(Cc4ccc(Cl)cc4)CC3)CC2)c(Cl)c1 [compound 82] , report pIC50.
< 7.00

For the compound CNC(=O)c1cnc(N2C[C@H](C)N(C3CCN(Cc4ccc(Cl)cc4F)CC3)C[C@H]2C)c(Cl)c1 [compound 352] , report pIC50.
< 7.00

For the compound CC(c1ccc(C#N)cc1)N1CCC(N2CCN(c3ncc(C(=O)NCc4ccc(Cl)c(Cl)c4)cc3Cl)CC2)CC1 (centres unmarked) [compound 32] , report pIC50.
< 7.00

For the compound CCOCc1cnc(N2CCN(C3CCN(Cc4ccc(Cl)cc4F)CC3)[C@@H](CC)C2)c(Cl)c1 [compound 424] , report pIC50.
7.00 to 7.60

For the compound CCNC(=O)OC(C)c1cnc(N2CCN(C3CCN(Cc4ccc(Cl)cc4F)CC3)[C@@H](CC)C2)c(Cl)c1 (some centres unmarked) [compound 434] , report pIC50.
< 7.00

Continuing:
For the compound CC[C@H]1CN(c2cc(N)c(C(N)=O)cc2Cl)CCN1C1CCN(Cc2ccc(Cl)cc2F)CC1 [compound 315] , report pIC50.
7.00 to 7.60
